- measurement protocol: Evaluation of sweetness level: choosing the sugar-added sample of equivalent sweetness intensity
- Format: in vivo
- condition parameters: evaluation with Novel steviol glycoside A (Compound 15); restated averages of Table 2
readout kind: sweetness levels taken for adjusting the beverage samples to Brix 5 in terms of sugar
Write the value as a bare number.

So, C=C1C[C@@]23CC[C@H]4[C@@](C)(CCC[C@@]4(C)C(=O)O[C@@H]4O[C@H](CO)[C@@H](O)[C@H](O)[C@H]4O)[C@@H]2CC[C@]1(O[C@@H]1O[C@H](CO)[C@@H](O)[C@H](O[C@@H]2O[C@H](CO)[C@@H](O)[C@H](O)[C@H]2O)[C@H]1O[C@@H]1O[C@H](CO)[C@@H](O)[C@H](O)[C@H]1O)C3 [Reb A, rebaudioside A] ? Its sweetness levels taken for adjusting the beverage samples to Brix 5 in terms of sugar was 312

Field sweetness levels taken for adjusting the beverage samples to Brix 5 in terms of sugar (entry C=C1C[C@@]23CC[C@H]4[C@@](C)(CCC[C@@]4(C)C(=O)O[C@@H]4O[C@H](CO)[C@@H](O)[C@H](O)[C@H]4O[C@@H]4O[C@H](CO)[C@@H](O)[C@H](O)[C@H]4O)[C@@H]2CC[C@]1(O[C@@H]1O[C@H](CO)[C@@H](O)[C@H](O[C@@H]2O[C@H](CO)[C@@H](O)[C@H](O)[C@H]2O)[C@H]1O[C@@H]1O[C@H](CO)[C@@H](O)[C@H](O)[C@H]1O)C3 [Reb D, rebaudioside D] ) reads 317

Measured sweetness levels taken for adjusting the beverage samples to Brix 5 in terms of sugar, C=C1C[C@@]23CC[C@H]4[C@@](C)(CCC[C@@]4(C)C(=O)O[C@@H]4O[C@H](CO)[C@@H](O)[C@H](O[C@@H]5O[C@H](CO)[C@@H](O)[C@H](O)[C@H]5O)[C@H]4O[C@@H]4O[C@H](CO)[C@@H](O)[C@H](O)[C@H]4O)[C@@H]2CC[C@]1(O[C@@H]1O[C@H](CO)[C@@H](O)[C@H](O[C@@H]2O[C@H](CO)[C@@H](O)[C@H](O)[C@H]2O)[C@H]1O[C@@H]1O[C@H](CO)[C@@H](O)[C@H](O)[C@H]1O)C3 [Reb M, rebaudioside M] : 341

---

- measurement protocol: Evaluation of sweetness level: choosing the sugar-added sample of equivalent sweetness intensity
- Format: in vivo
- condition parameters: evaluation with Novel steviol glycoside A (Compound 15); restated averages of Table 2
- Protocol: In order to evaluate the sweetness levels of Novel steviol glycosides A and B, samples were prepared by adding sugar to pure water to give Brix of 3.0 to 5.0 in 0.5 increments. Compounds 15 and 17 obtained by the chemical syntheses were used as Novel steviol glycosides A and B, respectively, where 48 mg of each sample was dissolved in 400 mL of pure water to be tested. […]
readout kind: sweetness levels taken for adjusting the beverage samples to Brix 5 in terms of sugar
// return a plain number; no unit text

sweetness levels taken for adjusting the beverage samples to Brix 5 in terms of sugar for C=C1CC23CCC4C(C)(C(=O)OC5OC(CO)C(O)C(O)C5OC5OCC(O)C(O)C5O)CCCC4(C)C2CCC1(OC1OC(CO)C(O)C(OC2OC(CO)C(O)C(O)C2O)C1OC1OC(CO)C(O)C(O)C1O)C3 (stereo not shown) [Novel steviol glycoside A] is 354
